# key: entry, value: melting point

{"Compound": "Cn1ncc2cc(C#Cc3c(F)cccc3F)ccc21 [Compound 5j]", "melting point": "107 to 109 °C"}
{"Compound": "CN(C)c1ccc(C#Cc2c(F)cccc2F)cn1 [Compound 5b]", "melting point": "110 to 112 °C"}
{"Compound": "Cn1ncc2ccc(C#Cc3c(F)cccc3F)cc21 [Compound 5k]", "melting point": "117 to 119 °C"}
{"Compound": "Fc1cccc(F)c1C#Cc1ccc(-n2cccc2)cc1 [Compound 4d]", "melting point": "122 to 124 °C"}
{"Compound": "Nc1ccc(C#Cc2c(F)cncc2F)cc1 [Compound 7b]", "melting point": "156 to 158 °C"}
{"Compound": "CN1CCN(c2ccc(C#Cc3c(F)cccc3F)cc2)CC1 [Compound 4c]", "melting point": "126 to 128 °C"}

What melting point value was documented for this compound, Nc1ccnc2cc(C#Cc3c(F)cccc3F)ccc12 [Compound 5dd] ?
219 to 221 °C
